Molecular target: T1, B7H3 antigen on the surface of A375 cells (human, UniProt Q5ZPR3 29-534)
T1 construct: whole, on cells
T1 sequence (looked up): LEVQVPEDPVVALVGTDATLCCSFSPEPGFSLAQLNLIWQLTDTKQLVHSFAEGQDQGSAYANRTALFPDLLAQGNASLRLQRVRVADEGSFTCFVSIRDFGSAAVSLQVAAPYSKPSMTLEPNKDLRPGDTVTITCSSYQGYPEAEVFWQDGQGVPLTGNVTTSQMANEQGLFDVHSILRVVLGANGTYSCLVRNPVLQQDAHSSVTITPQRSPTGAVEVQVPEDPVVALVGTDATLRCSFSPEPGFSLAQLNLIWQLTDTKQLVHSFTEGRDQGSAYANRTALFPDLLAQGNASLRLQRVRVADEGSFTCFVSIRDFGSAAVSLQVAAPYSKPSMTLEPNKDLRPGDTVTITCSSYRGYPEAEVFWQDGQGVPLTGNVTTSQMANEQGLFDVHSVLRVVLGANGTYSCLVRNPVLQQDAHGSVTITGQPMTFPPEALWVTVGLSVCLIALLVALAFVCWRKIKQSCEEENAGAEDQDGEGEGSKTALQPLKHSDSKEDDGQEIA
Assay: flow cytometry (MFI) on B7H3-positive A375 cells, anti-human Alexa Fluor 488
Observation type: EC50 (µg/mL)

- Binder: "DSADC (antibody, V domains shown, control linker-drug per CN104755494A conjugated to the antibody; average DAR 3.9 per antibody, Control anti-B7H3 ADC; the tie of DSADC to M30 is by position and a drawing only; also called M30 antibody conjugate) VH: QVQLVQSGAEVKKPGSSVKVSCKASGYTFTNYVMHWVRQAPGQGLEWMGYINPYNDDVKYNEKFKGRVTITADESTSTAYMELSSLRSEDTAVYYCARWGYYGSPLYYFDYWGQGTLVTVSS VL: EIVLTQSPATLSLSPGERATLSCRASSRLIYMHWYQQKPGQAPRPLIYATSNLASGIPARFSGSGSGTDFTLTISSLEPEDFAVYYCQQWNSNPPTFGQGTKVEIKR"
  Observation type: "EC50"
  Experimental value: 0.0925
- Binder: "B-ADC2-1-6 (antibody, human IgG1, kappa, L234A L235A, V domains shown, linker-drug LD2-1 (exatecan payload) conjugated to sulfhydryls of reduced interchain disulfide cysteines; average DAR 5.6 per antibody, Antibody-drug conjugate: 43B + LD2-1, DAR 5.6) VH: QVQLVQSGAEVKKPGASVKVSCKASGYTFTDYFMNWVRQAPGQGLEWMGDVNPKTGSPSYNQKFKGRVTMTRDTSTSTVYMELSSLRSEDTAVYYCARRYGFLYSMDYWGQGTSVTVSS VL: DIQMTQSPSSLSASVGDRVTITCRASQDISNYLNWYQQKPGKAVKVLIYYTSRLHSGVPSRFSGSGSGTDFTFTISSLQPEDIATYYCQQGNTHPFTFGGGTKVEIKR"
  Observation type: "EC50"
  Experimental value: 0.0416
- Binder: "B-ADC55-1-6 (antibody, human IgG1, kappa, L234A L235A, V domains shown, linker-drug LD55-1 (exatecan payload) conjugated to sulfhydryls of reduced interchain disulfide cysteines; average DAR 5.7 per antibody, Antibody-drug conjugate: 43B + LD55-1, DAR 5.7) VH: QVQLVQSGAEVKKPGASVKVSCKASGYTFTDYFMNWVRQAPGQGLEWMGDVNPKTGSPSYNQKFKGRVTMTRDTSTSTVYMELSSLRSEDTAVYYCARRYGFLYSMDYWGQGTSVTVSS VL: DIQMTQSPSSLSASVGDRVTITCRASQDISNYLNWYQQKPGKAVKVLIYYTSRLHSGVPSRFSGSGSGTDFTFTISSLQPEDIATYYCQQGNTHPFTFGGGTKVEIKR"
  Observation type: "EC50"
  Experimental value: 0.0378
- Binder: "B-ADC12-1-6 (antibody, human IgG1, kappa, L234A L235A, V domains shown, linker-drug LD12-1 (exatecan payload) conjugated to sulfhydryls of reduced interchain disulfide cysteines; average DAR 6.0 per antibody, Antibody-drug conjugate: 43B + LD12-1, DAR 6.0) VH: QVQLVQSGAEVKKPGASVKVSCKASGYTFTDYFMNWVRQAPGQGLEWMGDVNPKTGSPSYNQKFKGRVTMTRDTSTSTVYMELSSLRSEDTAVYYCARRYGFLYSMDYWGQGTSVTVSS VL: DIQMTQSPSSLSASVGDRVTITCRASQDISNYLNWYQQKPGKAVKVLIYYTSRLHSGVPSRFSGSGSGTDFTFTISSLQPEDIATYYCQQGNTHPFTFGGGTKVEIKR"
  Observation type: "EC50"
  Experimental value: 0.04
